# System tested: DGKζ (Homo sapiens (Human))
# Assay text: Biochemical DGK IC50 assay, DGKζ ADP-Glo assay
# Condition notes: 0.5 nM enzyme, 140 μM ATP, 80 μM DAG; read-out: DGKζ ADP-Glo assay IC50
pIC50: −log10 of the molar value.
Reported property: pIC50

In the examples that follow, each entry is paired with its recorded pIC50.
CC[C@H]1CN(C(C)c2ccc(C)c(C)n2)[C@H](CC)CN1c1cc(=O)n(C)c2cn(CC#N)nc12 (some centres unmarked)    7.26
CC(c1ccc2nccnc2c1)N1C[C@H](C)N(c2cc(=O)n(C)c3cn(C4CC4)nc23)C[C@H]1C (some centres unmarked)    4.89
CC[C@H]1CN(C(C)c2cccnc2OC)[C@H](CC)CN1c1cc(=O)n(C)c2cn(CC#N)nc12 (some centres unmarked)    6.59
CC[C@H]1CN(C(C)c2ccc3nccnc3c2)[C@H](CC)CN1c1cc(=O)n(CC2CC2)c2cn(CC#N)nc12 (some centres unmarked)    5.99
CC[C@H]1CN(C(C)c2c(F)cccc2F)[C@H](CC)CN1c1cc(=O)n(C)c2cn(CC#N)nc12 (some centres unmarked)    6.77

(A) [2H]C([2H])([2H])n1c(=O)cc(N2C[C@@H](CC)N(C(C)c3ccc(F)cc3C(F)(F)F)C[C@@H]2CC)c2nn(CC#N)cc21 (some centres unmarked)
(B) CC[C@H]1CN(C(C)c2cnc3c(n2)CCCC3)[C@H](CC)CN1c1cc(=O)n(C)c2cn(CC#N)nc12 (single isomer, unassigned) [Compound A357b]
Param metric = pIC50; output whichever of A , B has the minimum value. Response format: the label of the selected entry.
A
(A: 6.88, B: 7.92)

---

Recorded pIC50 values (DGKα (Homo sapiens (Human), UniProt P23743)) are given below.
pIC50: −log10 of the molar value.
Reported property: pIC50

CC[C@H]1CN(C(C)c2ccc(C(C)(C)C#N)cc2F)[C@H](CC)CN1c1cc(=O)n(C)c2cn(CC#N)nc12 (stereo partly shown)    6.07

(P) CC[C@H]1CN(C(C)c2ccc(C)cc2)[C@H](CC)CN1c1cc(=O)n(C)c2cn(CC#N)nc12 (stereo partly shown) [Compound A127]
(Q) CCC(c1ccc(C2CC2)cc1)N1C[C@H](C)N(c2cc(=O)n(C)c3cn(CC#N)nc23)C[C@H]1C (stereo partly shown)
Which has the higher pIC50, P or Q ? Response format: the label of the selected entry.
P
(P: 7.25, Q: 6.26)

(a) CC(c1ccc2c(c1)OC1(CC1)CO2)N1C[C@H](C)N(c2cc(=O)n(C)c3cn(CC#N)nc23)C[C@H]1C (stereo partly shown)
(b) CC[C@H]1CN(C(C)c2ncc(C)cc2F)[C@H](CC)CN1c1cc(=O)n(C)c2cn(CC#N)nc12 (stereo partly shown)
Which has the higher pIC50, a or b ? Response format: the label of the selected entry.
b
(b: 6.93, a: 4.97)

---

# System tested: DGKζ (Homo sapiens (Human), UniProt Q13574)
# Sequence (Q13574 other isoform, or with tags, fused parts or gaps): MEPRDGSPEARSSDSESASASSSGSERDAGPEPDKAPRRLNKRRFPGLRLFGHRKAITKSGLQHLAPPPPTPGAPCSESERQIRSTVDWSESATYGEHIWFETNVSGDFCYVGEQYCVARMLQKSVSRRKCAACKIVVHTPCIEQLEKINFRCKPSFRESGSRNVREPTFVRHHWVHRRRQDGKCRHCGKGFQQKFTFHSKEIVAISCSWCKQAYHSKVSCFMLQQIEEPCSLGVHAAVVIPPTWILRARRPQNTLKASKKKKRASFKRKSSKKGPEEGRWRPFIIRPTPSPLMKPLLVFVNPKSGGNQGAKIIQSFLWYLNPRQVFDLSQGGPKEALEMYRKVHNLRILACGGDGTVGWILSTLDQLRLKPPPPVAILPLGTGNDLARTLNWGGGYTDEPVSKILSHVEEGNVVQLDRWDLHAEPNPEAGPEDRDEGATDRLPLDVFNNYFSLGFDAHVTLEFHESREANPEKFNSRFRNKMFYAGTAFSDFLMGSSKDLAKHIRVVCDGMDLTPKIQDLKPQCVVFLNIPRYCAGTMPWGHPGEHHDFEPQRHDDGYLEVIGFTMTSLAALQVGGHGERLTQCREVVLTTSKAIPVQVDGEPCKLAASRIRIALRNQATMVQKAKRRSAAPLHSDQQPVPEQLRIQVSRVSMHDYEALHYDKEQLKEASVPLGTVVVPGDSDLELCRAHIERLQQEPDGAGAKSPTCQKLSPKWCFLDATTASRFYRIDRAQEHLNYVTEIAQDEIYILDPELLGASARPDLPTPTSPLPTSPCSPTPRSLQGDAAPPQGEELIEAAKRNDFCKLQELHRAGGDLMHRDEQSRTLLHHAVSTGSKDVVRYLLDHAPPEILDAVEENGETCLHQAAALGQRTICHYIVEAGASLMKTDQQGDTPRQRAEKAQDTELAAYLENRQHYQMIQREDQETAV
# Assay text: Biochemical DGK IC50 assay, DGKζ ADP-Glo assay
# Condition notes: 0.5 nM enzyme, 140 μM ATP, 80 μM DAG; read-out: DGKζ ADP-Glo assay IC50
Reported property: IC50 (nM)

In the examples that follow, each entry is paired with its recorded IC50.
COCC[C@H]1CN(C(C)c2ccc3nccnc3c2)[C@H](C)CN1c1cc(=O)n(C)c2cn(CC#N)nc12 (stereo partly shown)    72
CC[C@H]1CN(C(C)c2ccc(OC(C)C)cc2)[C@H](CC)CN1c1cc(=O)n(C)c2cn(CC#N)nc12 (stereo partly shown)    247
CC[C@H]1CN(C(C)c2ccc(C(F)(F)F)cc2)[C@H](CC)CN1c1cc(=O)n(C)c2cn(CC#N)nc12 (single isomer, unassigned) [Compound A103a]    241
CC[C@@H]1CN(c2cc(=O)n(C)c3cn(CC#N)nc23)[C@@H](CC)CN1Cc1ccc(F)cc1C(F)(F)F    270
CC[C@H]1CN(C(C)c2ccc(F)cc2OC(F)F)[C@H](CC)CN1c1cc(=O)n(C)c2cn(CC#N)nc12 (single isomer, unassigned) [Compound A171b]    1360
CC[C@H]1CN(C(C)c2ccc(OC(C)C)nc2)[C@H](CC)CN1c1cc(=O)n(C)c2cn(CC#N)nc12 (stereo partly shown)    60
Cc1nc2cc(C(C)N3C[C@H](C)N(c4cc(=O)n(C)c5cn(CC#N)nc45)C[C@H]3C)ccc2o1 (stereo partly shown)    1000
CC[C@H]1CN(C(C)c2cc(C(F)(F)F)nn2CC)[C@H](CC)CN1c1cc(=O)n(C)c2cn(CC#N)nc12 (stereo partly shown) [Compound A210]    369

(P) CC[C@H]1CN(C(C)c2ccc3nc(OC)cnc3c2)[C@H](CC)CN1c1cc(=O)n(C)c2cn(CC#N)nc12 (single isomer, unassigned) [Compound A281a]
(Q) CC[C@@H]1CN(c2cc(=O)n(C)c3cn(CC#N)nc23)[C@@H](CC)CN1C(=O)c1cc2ccccc2cn1
Which has the higher IC50, P or Q ? Response format: the label of the selected entry.
Q
(Q: 3450 nM, P: 77 nM)

---

# System tested: DGKζ (Homo sapiens (Human))
# Assay text: Biochemical DGK IC50 assay, DGKζ ADP-Glo assay
# Condition notes: 0.5 nM enzyme, 140 μM ATP, 80 μM DAG; read-out: DGKζ ADP-Glo assay IC50
pIC50: −log10 of the molar value.
Reported property: pIC50

In the examples that follow, each entry is paired with its recorded pIC50.
CC[C@H]1CN([C@@H](C)c2nc3ncccc3n2CC)[C@H](CC)CN1c1cc(=O)n(C)c2cn(CC#N)nc12 (single isomer, unassigned) [Compound A215b]    5.94
CC[C@H]1CN(C(C)c2c(C)cccc2C(F)(F)F)[C@H](CC)CN1c1cc(=O)n(C)c2cn(CC#N)nc12 (stereo partly shown)    5.41
CC[C@@H]1CN(c2cc(=O)n(C)c3cn(CC#N)nc23)[C@@H](CO)CN1C(C)c1ccc2nccnc2c1 (stereo partly shown)    6.78

(A) CC[C@H]1CN(C(C)c2ccc(CN3CCC(F)(F)CC3)cc2)[C@H](CC)CN1c1cc(=O)n(C)c2cn(CC#N)nc12 (stereo partly shown)
(B) C[C@@H]1CN(c2c(C#N)c(=O)n(C)c3cn(CC#N)nc23)[C@@H](C)CN1[C@@H](C)c1ccc2nccnc2c1
Param metric = pIC50; output whichever of A , B has the minimum value. Response format: the label of the selected entry.
A

(1) CC[C@@H]1CN(c2cc(=O)n(C)c3cn(CC#N)nc23)[C@@H](C)CN1C(c1ccc(F)cc1)c1ccc(C(F)(F)F)cn1 (stereo partly shown)
(2) CC(c1ccc2nccnc2c1)N1C[C@H](C)N(c2cc(=O)n(C)c3cn(S(C)(=O)=O)nc23)C[C@H]1C (stereo partly shown)
(3) CC(c1ccc2nccnc2c1)N1C[C@H](C)N(c2cc(=O)n(C)c3cn(CC4CC4)nc23)C[C@H]1C (stereo partly shown)
(4) CC(c1ccc2nccnc2c1)N1C[C@H](C)N(c2cc(=O)n(C)c3cn(C(CC#N)C4CCCC4)nc23)C[C@H]1C (stereo partly shown)
Sort the 4 molecules by pIC50; largest first, smallest last. Labels, requested order.
1, 2, 3, 4

(A) CC#CCn1cc2c(n1)c(N1C[C@@H](CC)N(C(C)c3ccc4cccnc4c3)C[C@@H]1C)cc(=O)n2C (stereo partly shown)
(B) CC[C@H]1CN(C(C)c2ccc(Cl)cn2)[C@H](CC)CN1c1cc(=O)n(C)c2cn(CC#N)nc12 (single isomer, unassigned) [Compound A360a]
Param metric = pIC50; output whichever of A , B has the minimum value. Response format: the label of the selected entry.
B

---

# System tested: DGKζ (Homo sapiens (Human))
# Assay text: Biochemical DGK IC50 assay, DGKζ ADP-Glo assay
# Condition notes: 0.5 nM enzyme, 140 μM ATP, 80 μM DAG; read-out: DGKζ ADP-Glo assay IC50
Reported property: IC50 (nM)

In the examples that follow, each entry is paired with its recorded IC50.
CC[C@H]1CN(C(C)c2cnn(CC)c2C(F)(F)F)[C@H](CC)CN1c1cc(=O)n(C)c2cn(CC#N)nc12 (single isomer, unassigned) [Compound A119a]    15
CC[C@H]1CN(C(C)c2ccc3nccnc3c2)[C@H](CC)CN1c1cc(=O)n(C)c2cn(CC#N)nc12 (single isomer, unassigned) [Compound A28b]    463

(1) [2H]C([2H])([2H])n1c(=O)cc(N2C[C@@H](C)N(C(C)c3ccc(F)cc3C(F)(F)F)C[C@@H]2C)c2nn(CC#N)cc21 (stereo partly drawn) [Compound A257]
(2) CC[C@@H]1CN(c2cc(=O)n(C)c3cn(CC#N)nc23)CCN1C(C)c1ccc2nccnc2c1 (single isomer, unassigned) [Compound A161b]
(3) COc1cc(F)c(C(C)N2C[C@H](C)N(c3cc(=O)n(C)c4cn(CC#N)nc34)C[C@H]2C)c(F)c1 (stereo partly drawn) [Compound A32]
(4) Cc1c2c(nn1CC#N)c(N1C[C@@H](C)N(C(C)c3ccc4nccnc4c3)C[C@@H]1C)cc(=O)n2C (stereo partly drawn) [Compound A209]
Sort the 4 compounds by IC50; largest first, smallest last. Labels, requested order.
1, 3, 2, 4

Attribution: patent US20240270751A1
